Tested on: UO-31 renal
TEST SUMMARY: NCI-60 one-dose screen, 48 h (100 = growth as untreated, 0 = no growth, -100 = all killed)
CONDITION DESCRIPTION: 10 µM unless noted
Compounds without any hit were thinned out: in the full panel of roughly 83,000, 20% have a hit.
Give T when the value for growth is at least 60%. Give F when it is less.

1. C#Cc1cccc(Nc2nc3ccc([N+](=O)[O-])cc3nc2Nc2cccc(C#C)c2)c1; F
2. CSCCC(NC(=O)c1ccccc1)C(=O)N/N=C1\S/C(=C/c2ccc(Cl)cc2)C(=O)N1C (stereo not given); T
3. COc1ccc(Nc2ncc(C(N)=O)c(NCCCNC(=O)C3CCC3)n2)cc1; F
4. Cc1ccc(C)c2c1C(O)(C#Cc1ccccc1)c1ccccc1C2(O)C#Cc1ccccc1 (stereo not given); F
5. COC(=O)c1c2c(c(C)[n+]([O-])c1C)C(=O)C=CC2=O; F
6. Cn1ncc2ccc(-c3nc(-c4ccccc4)[nH]c3-c3n[nH]c(=O)n3C3CC3)cc21; T
7. COc1ccc(NC(=O)c2cccc(C3CCc4c(cc(OC)c(OC)c4OC)O3)c2)cc1 (stereo not given); F
8. CCN(CC)c1ccc(/C=N\NC(=O)c2cccc(Nc3ccnc(C(F)(F)F)c3)c2)c(O)c1; F
9. COCCCOc1cc(C[C@@H](C[C@H](N)[C@@H](O)C[C@H](C(=O)NCC(C)(C)C(N)=O)C(C)C)C(C)C)ccc1OC; T
10. O=C1OCC2=C1C(c1cccc(F)c1)c1cc3c(cc1N2CCO)OCO3 (stereo not given); F
11. CCN1C(=S)N(CC)C2C1NC(=S)N2/N=C/C=C/c1ccccc1OC (stereo not given); F
12. O=C(CN1C(=O)/C(=C/c2ccco2)SC1=S)NCCc1c[nH]c2ccc(F)cc12; T
13. CCNC(=O)Oc1ccc(/C(=C(/C)Cc2ccc(OC)cc2)c2ccc(OCCN3CCCC3)cc2)cc1; F
14. CCN(CC)CCCNCc1cc(-c2ccccc2)nc2cc(Cl)ccc12; F
15. N#Cc1c(N2CCOCC2)nc(=S)[nH]c1-c1ccccc1; T
16. CC1(C)C2CC=C(/C=N/NC(=O)C3CCC(=O)N3)C1C2 (stereo not given); T
17. C=C1C(=O)O[C@H]2[C@H]1CC/C(COC(=O)c1cc3cc(F)ccc3[nH]1)=C\CC[C@@]1(C)O[C@@H]21; F
18. CC(O)c1ncc(/C=C2\SC(=S)N(Cc3ccccc3)C2=O)s1 (stereo not given); T
19. c1ccc(CCc2ccccc2-c2cc(-c3ccccc3)on2)cc1; T
20. Cc1ccc(N=Nc2c(N)nn(-c3ccccc3)c2N)cc1; F
21. N=C(N)c1ccc(-c2ccc(-c3ccc(Cl)cc3Cl)s2)cc1F; F
22. CC(C)c1ccc(-n2c(=S)[nH]c3sc4c(c3c2=O)CCC(=O)C4)cc1; F
23. Cc1c(Cl)cccc1C(=O)Nc1nc2c(s1)CN(C(=O)Nc1cccc(C(F)(F)F)c1)CC2; F
24. CCOC(=O)NN1CC(O)=C(c2nc(-c3ccc(Br)cc3)cs2)C1=N; T
25. Cc1ccccc1CNc1c2ccccc2nc2ccccc12; F
26. Fc1ccc(COc2ccc(Nc3ncnc4sc5c(c34)CCCC5)cc2)cc1; T
27. CN1CCN(CCCOC(=O)c2c3c(n4ccccc24)C(=O)c2ncccc2C3=O)CC1; F
28. CNC(=O)c1cc(Oc2ccc3nc(NC(=O)Nc4ccc(Cl)c(Cl)c4)sc3c2)ccn1; F
29. Cc1cscc(C)c1=S; T
30. CC(=O)N(Cc1ccccc1)c1nc2ccc(O)c(CN(C)C)c2s1; T
31. C/C(=C(/c1ccc(Cl)cc1)c1ccc(OCCCN(C)C)cc1)c1ccc(Cl)cc1; T
32. Cc1ccccc1OCC(O)COc1ccccc1C; T
33. N#Cc1c(NC(=O)c2cccs2)[n+]([O-])c2ccc(Cl)cc2[n+]1[O-]; T
34. O=C1/C=C/[C@@H](O)[C@@H]2C[C@@H](O)C[C@H]2/C=C/CCC[C@H](CCOCc2ccccc2)O1; F
35. Cc1[nH]c(C(=O)Nc2ccc(C(N)=O)cc2NC(C)C)c(Cl)c1Cl; T
36. COc1ccc(C2=C/C(=C\c3ccc(Cl)cc3)C(=O)N2/N=C/c2ccc(Cl)cc2)cc1; T
